Reported normalized growth by item:
Assay: chemical genetic growth profiling, strain panel (AID 1159580);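 further: tested at 20 µM; growth read once vehicle control cultures reached saturation at 30 °C; 1 = growth at the plate median or of vehicle wells; lower values mean less growth of the strain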
Settings: S. cerevisiae deletion strains, growth OD, locus YHR030C, strain SLT2, active compounds read low
The whole screen tested about 5,500 compounds, of which about 2,000 (36%) were called active. Inconclusive results (about 18%) are left out. The list shows a part of the results.
// return a plain number; no unit text

Some solved cases for reference:
> print(dat)
                                   molecule  measured.value
1  Cn1cncc1S(=O)(=O)/C(C#N)=C/c1ccccc1Sc1ccc(Cl)cc1           0.368
2            NC(N)=Nc1nc(-c2cc(Cl)sc2Cl)cs1           0.821
3              Cc1cc(=O)c2c(O)cc(O)c(C)c2o1           0.996
4  CC1(O)/C=C/C=C(\CO)C2CC(C)(C)C2(O)CC1 (stereo unspecified)               1
5  CC1(C)C2CCC1(C)C(O)C2 (stereo unspecified)            0.98
6                              C[C@@H](N)CO           0.984

Incoming: Consider the molecule shown here: Cn1c([N+](=O)[O-])cnc1/C=C(\C#N)C(=O)Nc1ccc(F)cc1 What is its recorded normalized growth?
Outgoing: 0.234

Incoming: Consider the molecule shown here: NCC1CCCCC1CC(=O)O (stereo unspecified) What is its recorded normalized growth?
Outgoing: 0.999

Incoming: Consider the molecule shown here: CN1Cc2c(ccc3c2OCO3)C2C(O)Cc3cc4c(cc3C21)OCO4 (stereo unspecified) What is its recorded normalized growth?
Outgoing: 0.999
